test_system: PREP (Homo sapiens, UniProt P48147)
Sequence (P48147 whole entry): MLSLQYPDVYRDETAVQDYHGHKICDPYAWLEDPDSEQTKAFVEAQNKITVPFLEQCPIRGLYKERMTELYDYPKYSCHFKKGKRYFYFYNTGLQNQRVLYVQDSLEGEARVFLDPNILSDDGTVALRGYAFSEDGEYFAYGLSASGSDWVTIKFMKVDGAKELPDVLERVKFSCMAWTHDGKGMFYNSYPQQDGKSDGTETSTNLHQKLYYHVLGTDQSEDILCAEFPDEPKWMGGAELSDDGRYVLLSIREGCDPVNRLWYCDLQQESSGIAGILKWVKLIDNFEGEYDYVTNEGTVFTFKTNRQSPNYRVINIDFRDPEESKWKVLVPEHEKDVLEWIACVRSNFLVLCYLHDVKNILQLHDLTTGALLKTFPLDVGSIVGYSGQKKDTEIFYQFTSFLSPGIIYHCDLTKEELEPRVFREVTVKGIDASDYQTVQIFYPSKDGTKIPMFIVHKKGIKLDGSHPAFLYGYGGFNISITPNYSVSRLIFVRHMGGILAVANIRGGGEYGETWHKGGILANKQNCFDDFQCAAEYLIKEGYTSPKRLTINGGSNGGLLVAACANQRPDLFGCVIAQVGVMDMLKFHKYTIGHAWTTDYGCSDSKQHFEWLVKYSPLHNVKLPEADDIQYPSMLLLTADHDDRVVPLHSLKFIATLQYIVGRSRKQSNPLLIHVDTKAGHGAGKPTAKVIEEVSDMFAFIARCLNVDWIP
protocol_details: Inhibitory activity against human recombinant PREP (IC50)
condition_set: selected substances
pIC50: −log10 of the molar value.
parameter: pIC50

Previously resolved entries follow.
{"smiles_record": "COc1ccc(CCNC(=O)C(=O)[C@@H]2CCCN2C(=O)CNC(=O)c2ccnc3ccccc23)cc1OC", "test_system": "PREP (Homo sapiens, UniProt P48147)", "assay_result": 9.30}
{"smiles_record": "COc1ccc(CNC(=O)C(=O)[C@@H]2CCCN2C(=O)CNC(=O)c2ccnc3ccccc23)cc1OC", "test_system": "PREP (Homo sapiens, UniProt P48147)", "assay_result": 9.40}

[1] COC(=O)[C@H](Cc1ccccc1)NC(=O)CNC(=O)C(=O)[C@@H]1CCCN1C(=O)CNC(=O)c1ccnc2ccccc12
[2] CC(C)(C)OC(=O)CNC(=O)C(=O)[C@@H]1CCCN1C(=O)CNC(=O)c1ccnc2ccccc12
INPUT: Param metric = pIC50; output whichever of 1 , 2 has the minimum value. Your answer should be the label of the entry you select.
OUTPUT: 2

From: patent US12371416B2
